molecular target: Prothrombin (Homo sapiens); assay: Inhibition of human thrombin
pIC50: −log10 of the molar value.
EXPERIMENTAL_READOUT: pIC50

structure_string=COc1ccc(OC)c(S(=O)(=O)N2CCC(N(C/C=C/c3cccc(C(=N)N)c3)C(=O)CC(=O)O)CC2)c1 observed_value="< 4.00"

Here's the next entry for you.
Record COc1ccc(OC)c(S(=O)(=O)N2CCC(N(Cc3ccc4ccc(C(=N)N)cc4c3)S(=O)(=O)CC(=O)O)CC2)c1 ; system Prothrombin (Homo sapiens); pIC50 = < 4.00

====

species on record: Homo sapiens; assay: Selectivity for human factor 10a over human thrombin
EXPERIMENTAL_READOUT: Selectivity ratio

Guide cases for Selectivity ratio, answers given:
structure_string=COc1ccc(OC)c(S(=O)(=O)N2CCC(N(Cc3ccc4ccc(C(=N)N)cc4c3)C(=O)CC(=O)O)CC2)c1 experimental_readout="Selectivity ratio" observed_value="> 7000"
structure_string=CS(=O)(=O)N(Cc1ccc2ccc(C(=N)N)cc2c1)C1CCN(S(=O)(=O)c2c(Cl)cccc2Cl)CC1 experimental_readout="Selectivity ratio" observed_value="> 7000"
structure_string=COc1ccc(C)cc1S(=O)(=O)N1CCC(N(Cc2ccc3ccc(C(=N)N)cc3c2)S(C)(=O)=O)CC1 experimental_readout="Selectivity ratio" observed_value="> 7000"
structure_string=CS(=O)(=O)N(Cc1ccc2ccc(C(=N)N)cc2c1)C1CCN(S(=O)(=O)c2cccc(F)c2)CC1 experimental_readout="Selectivity ratio" observed_value="> 7000"

The reported value for CS(=O)(=O)N(Cc1ccc2ccc(C(=N)N)cc2c1)C1CCN(C(=O)c2cccc(C#N)c2)CC1 in terms of Selectivity ratio is > 7000

The reported value for CS(=O)(=O)N(Cc1ccc2ccc(C(=N)N)cc2c1)C1CCN(S(=O)(=O)c2ccccc2Cl)CC1 in terms of Selectivity ratio is > 7000

The reported value for CS(=O)(=O)N(Cc1ccc2ccc(C(=N)N)cc2c1)C1CCN(S(=O)(=O)c2cccc(Cl)c2Cl)CC1 in terms of Selectivity ratio is > 7000

The reported value for COc1ccc(OC)c(S(=O)(=O)N2CCC(N(Cc3ccc4ccc(C(=N)N)cc4c3)S(C)(=O)=O)CC2)c1 in terms of Selectivity ratio is > 7000

====

target: Trypsin (Homo sapiens, UniProt P07477+P07478+P35030); test: Inhibition of human trypsin; format: protein assay
EXPERIMENTAL_READOUT: IC50 (µM)

[1] COc1ccc(OC)c(S(=O)(=O)N2CCC(N(C/C=C/c3cccc(C(=N)N)c3)C(=O)CC(=O)O)CC2)c1
[2] COc1ccc(OC)c(S(=O)(=O)N2CCC(N(Cc3ccc4ccc(C(=N)N)cc4c3)C(=O)CC(=O)O)CC2)c1
Query string: Decide: 1 or 2 , by lowest recorded IC50. // return label of chosen record
Result string: 2

[A] COc1ccc(OC)c(S(=O)(=O)N2CCC(N(C/C=C/c3cccc(C(=N)N)c3)S(=O)(=O)CC(=O)O)CC2)c1
[B] CC(=N)N1CC[C@H](Oc2ccc([C@H](Cc3ccc4ccc(C(=N)N)cc4c3)C(=O)O)cc2)C1 [DX-9065A]
[C] COc1ccc(OC)c(S(=O)(=O)N2CCC(N(Cc3ccc4ccc(C(=N)N)cc4c3)S(C)(=O)=O)CC2)c1
Query string: Could you please order the items by IC50, going from the lowest number to the highest? Use the labels to give the requested order.
Result string: C, B, A
